measuredTarget: human PD-1 on PD-1 Effector Cell Line (Genscript, GS-J2/PD-1) (human, UniProt Q15116 25-288)
Sequence (Q15116 25-288): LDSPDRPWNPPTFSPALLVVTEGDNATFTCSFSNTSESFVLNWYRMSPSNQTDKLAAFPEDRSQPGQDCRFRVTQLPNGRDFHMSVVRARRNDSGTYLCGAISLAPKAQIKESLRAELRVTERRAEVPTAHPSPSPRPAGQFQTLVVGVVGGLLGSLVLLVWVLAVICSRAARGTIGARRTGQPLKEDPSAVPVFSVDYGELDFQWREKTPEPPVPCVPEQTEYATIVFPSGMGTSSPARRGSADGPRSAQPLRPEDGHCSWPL
assayNotes: cell-based or functional assay
quantityKind: Reporter Activation (EC50, nM) human PD-1 cell (NFAT-luc)/human PD-L1 cell
Report the value in nM with no unit label.

Please give the documented Reporter Activation (EC50, nM) human PD-1 cell (NFAT-luc)/human PD-L1 cell of mouse anti-PD-1 monoclonal antibody 2G2 (antibody, mouse IgG1, kappa, V domains shown, Purified from hybridoma; Constant regions tied only generically to 'mouse antibodies'; also called Clone 2G2) VH: EVQLVESGGDLVKPGGSLKLSCTASGFTFSYYGMSWVRQTPDKRLEWVATISSGSSFTYSPDSVKGRFTISRDNAKNTLYLQMNSLKSEDTAIYYCTRREGIYDASWDYSMDYWGQGTSVTVSS VL: DVLMTQTPLSLPVSLGDQASISCRSSQSIIRSNGNTYLEWYLQKPGQSPKLLIYKVSNRFSGVPDRFSGSGSGTDFTLKISRVEADDLGLYYCFQGSHVPWTFGGGTKLEIKR 17.9

The values you see were collected from patent US12037395.
